# protocol.text: chemical genetic growth profiling, strain panel (AID 1159580);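 further: tested at 20 µM; growth read once vehicle control cultures reached saturation at 30 °C; 1 = growth at the plate median or of vehicle wells; lower values mean less growth of the strain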
# reported.conditions: S. cerevisiae deletion strains, growth OD, locus YLR085C, strain ARP6, stronger effect = lower value
Out of some 5,500 compounds screened, about 2,000 (36%) were called active. Roughly 18% stayed inconclusive and do not appear here. The list shows a part of the results.
assay.endpoint: normalized growth
// response body must contain only the number

normalized growth for `O=C(Nc1cc2cc([N+](=O)[O-])ccc2oc1=O)c1c(F)cccc1F` ?
1.07

Param item: `CCOC(=O)c1nc(-c2ccccc2)sc1C(=O)OCC`
0.833

Param item: `O=C(CSCc1c(F)cccc1Cl)Nc1ccc(F)c(Cl)c1`
0.561

Param item: CCCC(CC(=O)O)(C(=O)O)c1ccccc1 (stereo unspecified)
1.05

Param item: COc1ccccc1C1OC(=O)CC1C(=O)O (stereo unspecified)
1.02

Param item: COC(=O)c1cccc(NC(=O)CC2C(=O)NCCN2C(=O)c2cccs2)c1 (stereo unspecified)
0.997

Param item: `S=C(NCc1cccnc1)Nc1ccccc1Cl`
0.584

Param item: `O=C(Nc1ccc(Cl)c(Cl)c1)c1ccccc1`
0.504

Param item: `Cc1noc(C)c1C(=O)N1CCN(c2ncc(C(F)(F)F)cc2Cl)CC1`
0.982

Param item: CC12CCC3C4CCC(=O)C=C4CCC3C1CCC2=O (stereo unspecified)
1.02

Param item: `Cc1cc(C)cc(NC(=S)N2CCN(c3ncc(C(F)(F)F)cc3Cl)CC2)c1`
0.99

Param item: COc1ccc(NC(=O)C(C)c2ccc(CC(C)C)cc2)cc1 (stereo unspecified)
0.878

Param item: `O=C1CC(CSc2ccc(Cl)cc2)=NN1`
0.659

Param item: N#CC(NCc1ccccc1)c1ccc(Cl)c(Cl)c1 (stereo unspecified)
0.977

Param item: `CC(=O)Nc1c(C)c(C)c(C)c(C)c1NC(C)=O`
1.07

Param item: `Cc1noc(N)c1C(N)=S`
1.17

Param item: COc1cc(C2OC(c3cc(C)ccc3[N+](=O)[O-])=NN2C(C)=O)cc(OC)c1OC (stereo unspecified)
0.967

Param item: `Cc1csc2ccc(Cl)cc12`
1.03

Param item: `Cc1cc(=O)n2[nH]cc(C#N)c2n1`
1

Param item: `COc1cc(OC)nc(N)n1`
0.949

Param item: `COc1ccc(-c2n[nH]c(=S)n2-c2cccc(OC)c2)cc1`
0.954

Param item: `O=C1ON=C(c2ccccc2)/C1=C/c1ccc(Cl)cc1`
0.297

Param item: `O=C(NC1CCN(Cc2ccc(Cl)c(Cl)c2)CC1)c1ccccc1`
0.86

Param item: `O=C(N/N=C\c1c(O)ccc2ccccc12)N/N=C\c1c(O)ccc2ccccc12`
0.899

Param item: `Cc1ccc2[nH]c3c(c2c1)CCCC3`
0.696

Param item: `CCN(CC)c1ccc(NC(=O)c2c(F)cccc2F)c(N(CC)CC)n1`
0.91

Param item: `O=C1ON=C(CSc2ccccc2)/C1=C/c1ccc(Cl)cc1`
0.0742

Param item: `N#C/C(NCc1cccs1)=C(\C#N)NCc1c(F)cccc1Cl`
0.957

Param item: `O=S(=O)(CCN1CCOCC1)c1ccc(Cl)cc1`
0.974

Param item: `Cn1c(CSCC(=O)Nc2ccccc2)n[nH]c1=S`
0.966

Param item: `Nc1ccccc1C(=O)N/N=C\c1cccc2ccccc12`
0.615

src = PubChem BioAssay AID1159580
